Hey, just so you know, these numbers are from patent EP0581166A1.

- target entity: Angiotensin II-Rezeptor (Rattus norvegicus)
- Sequence (P25095 whole entry): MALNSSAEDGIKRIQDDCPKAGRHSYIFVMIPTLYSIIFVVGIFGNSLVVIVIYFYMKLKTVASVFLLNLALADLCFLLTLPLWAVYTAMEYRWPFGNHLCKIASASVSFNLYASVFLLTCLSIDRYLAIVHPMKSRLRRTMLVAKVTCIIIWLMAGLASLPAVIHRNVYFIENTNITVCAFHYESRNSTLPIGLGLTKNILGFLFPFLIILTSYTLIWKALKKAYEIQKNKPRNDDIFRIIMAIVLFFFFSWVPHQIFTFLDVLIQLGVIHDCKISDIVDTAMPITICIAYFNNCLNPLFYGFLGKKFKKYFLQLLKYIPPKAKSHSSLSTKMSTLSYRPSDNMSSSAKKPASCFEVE
pIC50: −log10 of the molar value.
measured metric: pIC50

CCc1nc2c(C)cc(-c3nc4cc(F)ccc4n3C)cc2n1Cc1ccc(-c2ccccc2C(=O)O)cc1 8.13

[1] CCCc1nc2c(C)cc(N3CCCCS3(=O)=O)cc2n1Cc1ccc(-c2ccccc2C(=O)O)cc1
[2] CCOc1nc2c(C)cc(-c3nc4ccccc4n3C)cc2n1Cc1ccc(-c2ccccc2-c2nnn[nH]2)cc1
Could you point out whether the larger pIC50 belongs to 1 or to 2 ? In your reply, give the label of the chosen option. 1
(1: 9.05, 2: 8.48)
